system: Pseudomonas aeruginosa; assay: Antibacterial activity against Pseudomonas aeruginosa ATCC 10145 by microdilution method; type: functional
Activity calls are given as the source filed them. The calls are words filed in the database; no cut-off is given here.
reported-metric: MIC

# compound, measured-target, reported-metric, observed
records = [
    ("O=c1cc(CCl)oc(CN2CCN(c3ccccc3F)CC2)c1O", "Pseudomonas aeruginosa", "MIC", "32 µg/mL"),
    ("CN[C@H](CC(C)C)C(=O)N[C@H]1C(=O)N[C@@H](CC(N)=O)C(=O)N[C@H]2C(=O)N[C@H]3C(=O)N[C@H](C(=O)N[C@H](C(=O)O)c4cc(O)cc(O)c4-c4cc3ccc4O)[C@H](O)c3ccc(c(Cl)c3)Oc3cc2cc(c3O[C@@H]2O[C@H](CO)[C@@H](O)[C@H](O)[C@H]2O[C@H]2C[C@](C)(N)[C@H](O)[C@H](C)O2)Oc2ccc(cc2Cl)[C@H]1O", "Pseudomonas aeruginosa", "MIC", "inactive"),
    ("O=c1cc(CCl)oc(CN2CCN(c3ccccc3Cl)CC2)c1O", "Pseudomonas aeruginosa", "MIC", "64 µg/mL"),
    ("O=c1cc(CCl)oc(CN2CCN(c3ccc(Cl)cc3)CC2)c1O", "Pseudomonas aeruginosa", "MIC", "64 µg/mL"),
    ("COc1ccc(N2CCN(Cc3oc(CCl)cc(=O)c3O)CC2)cc1", "Pseudomonas aeruginosa", "MIC", "16 µg/mL"),
    ("O=c1cc(CCl)oc(CN2CCN(c3cccc(C(F)(F)F)c3)CC2)c1O", "Pseudomonas aeruginosa", "MIC", "16 µg/mL"),
    ("O=c1cc(CCl)oc(CN2CCN(c3ccc(F)cc3)CC2)c1O", "Pseudomonas aeruginosa", "MIC", "32 µg/mL"),
    ("O=c1cc(CCl)oc(CN2CCN(c3ccc(Cl)c(Cl)c3)CC2)c1O", "Pseudomonas aeruginosa", "MIC", "16 µg/mL"),
]

Input: Which MIC is listed for COc1ccccc1N1CCN(Cc2oc(CCl)cc(=O)c2O)CC1 ?
Output: 32 µg/mL

Input: // MIC lookup, key: O=c1cc(CCl)oc(CN2CCN(c3cccc(Cl)c3)CC2)c1O
Output: 32 µg/mL

###

system: Human respirovirus 3; experiment: Antiviral activity against Human parainfluenza virus 3 infected African green monkey Vero cells assessed as concentration required to cause maximum inhibition of virus-induced cytopathic effect; assay type: functional
reported-metric: Activity (µg/mL)
Response body: numeric value in µg/mL, unit text excluded.

// worked examples, Activity included
# compound, Activity [µg/mL]
rows = [
    ("O=c1cc(CCl)oc(CN2CCN(c3ccc(Cl)c(Cl)c3)CC2)c1O", 0.4),
    ("O=c1cc(CCl)oc(CN2CCN(c3cccc(C(F)(F)F)c3)CC2)c1O", 0.4),
]

Input: Which Activity is reported for this compound? COc1ccc(N2CCN(Cc3oc(CCl)cc(=O)c3O)CC2)cc1
Output: 0.8

Input: For O=c1cc(CCl)oc(CN2CCN(c3ccccc3F)CC2)c1O , what is its reported Activity?
Output: 0.2

Input: Endpoint output: Activity of COc1ccccc1N1CCN(Cc2oc(CCl)cc(=O)c2O)CC1 . Value?
Output: 0.2

Input: Record request: Activity value, item O=c1cc(CCl)oc(CN2CCN(c3ccc(C(F)(F)F)cc3)CC2)c1O
Output: 0.4

Input: What measured Activity goes with O=c1cc(CCl)oc(CN2CCN(c3ccc(F)cc3)CC2)c1O ?
Output: 0.2

Input: Consider the compound CCOC(=O)C1=C[C@@H](OC(CC)CC)[C@H](NC(C)=O)[C@@H](N)C1 [OSELTAMIVIR] and give its measured Activity.
Output: 1.6

Input: Reported Activity, compound O=c1cc(CCl)oc(CN2CCN(c3cccc(Cl)c3)CC2)c1O : ____
Output: 0.8

###

tested on: Acinetobacter baumannii; assay: Antibacterial activity against trimethoprim-sulfamethoxazole, cefepime-resistant Acinetobacter baumannii by microdilution method; assay type: functional
Entries and their measured MIC follow.

# compound, MIC
rows = [
    ("O=c1cc(CCl)oc(CN2CCN(c3ccc(C(F)(F)F)cc3)CC2)c1O", "64 µg/mL"),
]

Input: Given the compound O=c1cc(CCl)oc(CN2CCN(c3cccc(Cl)c3)CC2)c1O , what is its reported MIC?
Output: 64 µg/mL

Input: So what does the record say about MIC for CC1COc2c(N3CCN(C)CC3)c(F)cc3c(=O)c(C(=O)O)cn1c23 (stereo not given) ?
Output: 64 µg/mL

Input: Recorded MIC of O=c1cc(CCl)oc(CN2CCN(c3ccc(Cl)cc3)CC2)c1O , please.
Output: > 128 µg/mL

Input: What does the data say about its MIC? Entry: CC1(C)S[C@@H]2[C@H](NC(=O)[C@H](N)c3ccccc3)C(=O)N2[C@H]1C(=O)O
Output: > 128 µg/mL

Input: Fill in: MIC of O=c1cc(CCl)oc(CN2CCN(c3ccc(F)cc3)CC2)c1O is ___
Output: 64 µg/mL

Input: Item COc1ccc(N2CCN(Cc3oc(CCl)cc(=O)c3O)CC2)cc1 has what recorded MIC?
Output: 32 µg/mL

Input: Recorded MIC for C[C@H]1COc2c(N3CCN(C)CC3)c(F)cc3c(=O)c(C(=O)O)cn1c23.C[C@H]1COc2c(N3CCN(C)CC3)c(F)cc3c(=O)c(C(=O)O)cn1c23.O , please?
Output: 64 µg/mL

Input: Find the recorded MIC belonging to O=c1cc(CCl)oc(CN2CCN(c3ccccc3Cl)CC2)c1O and report it.
Output: > 128 µg/mL

Input: Could you share which MIC value was measured for COc1ccccc1N1CCN(Cc2oc(CCl)cc(=O)c2O)CC1 ?
Output: 64 µg/mL

###

Listed next: entries and their corresponding MIC.
tested on: Staphylococcus aureus; assay: Antibacterial activity against Staphylococcus aureus ATCC 25923 by microdilution method; type: functional
Field: numeric (µg/mL). Do not append units.

# compound, MIC [µg/mL]
rows = [
    ("COc1ccccc1N1CCN(Cc2oc(CCl)cc(=O)c2O)CC1", 64),
]

// next item, MIC requested
Input: Reported MIC, compound CN[C@H](CC(C)C)C(=O)N[C@H]1C(=O)N[C@@H](CC(N)=O)C(=O)N[C@H]2C(=O)N[C@H]3C(=O)N[C@H](C(=O)N[C@H](C(=O)O)c4cc(O)cc(O)c4-c4cc3ccc4O)[C@H](O)c3ccc(c(Cl)c3)Oc3cc2cc(c3O[C@@H]2O[C@H](CO)[C@@H](O)[C@H](O)[C@H]2O[C@H]2C[C@](C)(N)[C@H](O)[C@H](C)O2)Oc2ccc(cc2Cl)[C@H]1O : ____
Output: 0.12

###

test system: Enterococcus faecalis; experiment: Antibacterial activity against cephalosporins and beta-lactam-resistant Enterococcus faecalis by microdilution method; assay type: functional
reported-metric: MIC

# example entries with known answers
# compound, MIC
measured = [
    ("O=c1cc(CCl)oc(CN2CCN(c3ccc(C(F)(F)F)cc3)CC2)c1O", "32 µg/mL"),
    ("O=c1cc(CCl)oc(CN2CCN(c3cccc(Cl)c3)CC2)c1O", "128 µg/mL"),
    ("O=c1cc(CCl)oc(CN2CCN(c3ccc(F)cc3)CC2)c1O", "32 µg/mL"),
    ("O=c1cc(CCl)oc(CN2CCN(c3ccccc3Cl)CC2)c1O", "> 128 µg/mL"),
    ("O=c1cc(CCl)oc(CN2CCN(c3ccccc3F)CC2)c1O", "32 µg/mL"),
    ("CC1COc2c(N3CCN(C)CC3)c(F)cc3c(=O)c(C(=O)O)cn1c23 (configuration not stated) [OFLOXACIN]", "32 µg/mL"),
]

From here, focus on the item given below.
Input: Returns the measured MIC for the input compound. Input: CC1(C)S[C@@H]2[C@H](NC(=O)[C@H](N)c3ccccc3)C(=O)N2[C@H]1C(=O)O [AMPICILLIN]
Output: > 128 µg/mL

###

test system: Candida parapsilosis; assay: Antifungal activity against Candida parapsilosis ATCC 22019 by microdilution method; format: functional; conditions: Lodderomyces parapsilosis
Listing of recorded MIC by entry.

# compound, measured-target, observed
measured = [
    ("O=c1cc(CCl)oc(CN2CCN(c3ccc(C(F)(F)F)cc3)CC2)c1O", "Candida parapsilosis", "8 µg/mL"),
]

Input: I'd like to know its MIC. The compound in question is O=c1cc(CCl)oc(CN2CCN(c3ccccc3Cl)CC2)c1O
Output: 16 µg/mL

Input: # MIC lookup, item O=c1cc(CCl)oc(CN2CCN(c3ccccc3F)CC2)c1O
Output: 8 µg/mL

Input: Name the recorded MIC for OC(Cn1cncn1)(Cn1cncn1)c1ccc(F)cc1F [FLUCONAZOLE] .
Output: 4 µg/mL

Input: // MIC lookup, key: COc1ccc(N2CCN(Cc3oc(CCl)cc(=O)c3O)CC2)cc1
Output: 8 µg/mL

Input: Item under review: O=c1cc(CCl)oc(CN2CCN(c3cccc(C(F)(F)F)c3)CC2)c1O . Reported MIC?
Output: 8 µg/mL

Input: Could you tell me which MIC is on file for O=c1cc(CCl)oc(CN2CCN(c3ccc(Cl)cc3)CC2)c1O ?
Output: 16 µg/mL

Input: Sample O=c1cc(CCl)oc(CN2CCN(c3ccc(F)cc3)CC2)c1O — what was its MIC?
Output: 8 µg/mL

Where do the numbers come from? From ChEMBL document CHEMBL3045118.
